subject of test: human recombinant adrenergic α2B receptor (Homo sapiens)
Construct: expressed in transfected cells; host or cells: Chinese hamster ovary (CHO-K1) cells
Sequence (P18089 whole entry): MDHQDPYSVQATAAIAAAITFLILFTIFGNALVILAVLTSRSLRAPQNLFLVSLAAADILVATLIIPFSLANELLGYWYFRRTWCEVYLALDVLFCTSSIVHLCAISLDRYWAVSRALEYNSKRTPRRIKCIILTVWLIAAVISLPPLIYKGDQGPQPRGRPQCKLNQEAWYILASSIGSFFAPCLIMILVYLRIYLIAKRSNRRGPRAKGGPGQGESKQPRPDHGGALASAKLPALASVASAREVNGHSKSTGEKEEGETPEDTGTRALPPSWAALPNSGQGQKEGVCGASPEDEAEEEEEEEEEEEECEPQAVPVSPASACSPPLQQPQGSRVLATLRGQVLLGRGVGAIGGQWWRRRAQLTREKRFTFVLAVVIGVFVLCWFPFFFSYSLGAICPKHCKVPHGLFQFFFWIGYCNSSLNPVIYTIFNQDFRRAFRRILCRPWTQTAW
measurement protocol: Adrenergic α2B radioligand binding assay ([3H]Rauwolscine)
measurement setup: 2.5 nM [3H]Rauwolscine, read-out: Percent Inhibition of ligand binding, Adrenergic (1 μM) α2B
reported metric: inhibition at 1 µM (%)

>  <compound>
CN1CCc2c(c3cc(Cl)ccc3n2CC2(c3ccc(F)cc3)OCCO2)C1 [Compound 4]

>  <result value>
103

$$$$
>  <compound>
CN1CCc2c(c3cc(Cl)ccc3n2CC2(c3ccc(Cl)cc3)OCCO2)C1 [Compound 5]

>  <result value>
97

$$$$
>  <compound>
Cc1ccc2c(c1)c1c(n2CC(CC(=O)O)c2ccc(F)cc2)CCN(C)C1 (stereo not shown) [Compound 7]

>  <result value>
12

$$$$
>  <compound>
Cc1ccc2c(c1)c1c(n2CC2(c3ccccc3)OCCO2)CCN(C)C1 [Compound 2]

>  <result value>
103

$$$$
>  <compound>
Cc1ccc2c(c1)c1c(n2CC2(c3ccc(F)cc3)OCCO2)CCN(C)C1 [Compound 3]

>  <result value>
106

$$$$
>  <compound>
CCOC(=O)CC(Cn1c2c(c3cc(C)ccc31)CN(C)CC2)c1ccc(F)cc1 (stereo not shown) [Compound 6]

>  <result value>
95

$$$$
>  <compound>
CNC(=O)CC(Cn1c2c(c3cc(C)ccc31)CN(C)CC2)c1ccc(F)cc1 (stereo not shown) [Compound 8]

>  <result value>
72

$$$$

###

subject of test: human recombinant serotonin (5-Hydroxytryptamine) 5-HT2A receptor (Homo sapiens)
Construct: expressed in transfected cells; host or cells: Chinese hamster ovary (CHO-K1) cells
Sequence (P28223 whole entry): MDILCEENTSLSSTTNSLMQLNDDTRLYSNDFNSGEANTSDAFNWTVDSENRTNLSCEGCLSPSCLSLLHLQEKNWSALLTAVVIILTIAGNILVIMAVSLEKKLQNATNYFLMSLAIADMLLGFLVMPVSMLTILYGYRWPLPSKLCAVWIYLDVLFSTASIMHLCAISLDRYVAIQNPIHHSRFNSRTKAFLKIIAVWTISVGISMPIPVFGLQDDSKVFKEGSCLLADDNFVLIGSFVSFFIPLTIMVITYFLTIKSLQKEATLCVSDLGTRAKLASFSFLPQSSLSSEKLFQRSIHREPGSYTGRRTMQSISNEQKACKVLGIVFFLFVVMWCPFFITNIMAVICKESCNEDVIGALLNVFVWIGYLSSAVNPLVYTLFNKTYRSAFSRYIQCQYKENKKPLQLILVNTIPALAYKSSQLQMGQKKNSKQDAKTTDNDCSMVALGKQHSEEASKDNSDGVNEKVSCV
measurement protocol: Serotonin 5-HT2A radioligand binding assay ([3H]Ketanserin)
measurement setup: 0.5 nM [3H]Ketanserin, read-out: Percent Inhibition of ligand binding, Serotonin (1 μM) 5-HT2A

>  <compound>
Cc1ccc2c(c1)c1c(n2CC(CC(=O)O)c2ccc(F)cc2)CCN(C)C1 (centres unmarked)

>  <inhibition at 1 µM / %>
9

$$$$
>  <compound>
CCOC(=O)CC(Cn1c2c(c3cc(C)ccc31)CN(C)CC2)c1ccc(F)cc1 (centres unmarked)

>  <inhibition at 1 µM / %>
95

$$$$
>  <compound>
Cc1ccc2c(c1)c1c(n2CC2(c3ccccc3)OCCO2)CCN(C)C1

>  <inhibition at 1 µM / %>
93

$$$$
>  <compound>
Cc1ccc2c(c1)c1c(n2CC(O)(c2ccccc2)c2ccc(F)cc2)CCN(C)C1 (centres unmarked)

>  <inhibition at 1 µM / %>
97

$$$$
>  <compound>
CN1CCc2c(c3cc(Cl)ccc3n2CC2(c3ccc(F)cc3)OCCO2)C1

>  <inhibition at 1 µM / %>
99

$$$$
>  <compound>
CNC(=O)CC(Cn1c2c(c3cc(C)ccc31)CN(C)CC2)c1ccc(F)cc1 (centres unmarked)

>  <inhibition at 1 µM / %>
85

$$$$
>  <compound>
Cc1ccc2c(c1)c1c(n2CC2(c3ccc(F)cc3)OCCO2)CCN(C)C1

>  <inhibition at 1 µM / %>
99

$$$$
>  <compound>
CN1CCc2c(c3cc(Cl)ccc3n2CC2(c3ccc(Cl)cc3)OCCO2)C1

>  <inhibition at 1 µM / %>
99

$$$$

###

Listing: inhibition at 1 µM of selected compounds
subject of test: human recombinant serotonin (5-Hydroxytryptamine) 5-HT7 receptor (Homo sapiens, UniProt P34969)
Sequence (P34969 whole entry): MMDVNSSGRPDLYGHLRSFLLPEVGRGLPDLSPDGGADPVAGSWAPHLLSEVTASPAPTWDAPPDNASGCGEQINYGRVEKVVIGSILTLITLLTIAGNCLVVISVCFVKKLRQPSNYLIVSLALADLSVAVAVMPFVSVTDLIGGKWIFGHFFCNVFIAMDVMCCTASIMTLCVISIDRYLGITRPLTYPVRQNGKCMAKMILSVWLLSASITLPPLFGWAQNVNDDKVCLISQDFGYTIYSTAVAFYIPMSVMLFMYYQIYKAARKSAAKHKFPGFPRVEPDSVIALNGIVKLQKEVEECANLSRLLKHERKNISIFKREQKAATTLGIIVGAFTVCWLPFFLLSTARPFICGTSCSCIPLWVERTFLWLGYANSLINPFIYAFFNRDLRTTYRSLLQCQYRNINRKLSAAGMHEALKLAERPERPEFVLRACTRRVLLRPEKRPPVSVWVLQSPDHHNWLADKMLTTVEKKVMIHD
measurement protocol: Serotonin 5-HT7 radioligand binding assay ([3H]LSD)
measurement setup: 5.5 nM [3H]LSD, read-out: Percent Inhibition of ligand binding, Serotonin (1 μM) 5-HT7

>  <compound>
Cc1ccc2c(c1)c1c(n2CC(CC(=O)O)c2ccc(F)cc2)CCN(C)C1 (stereo not drawn)

>  <inhibition at 1 µM [%]>
5

$$$$
>  <compound>
Cc1ccc2c(c1)c1c(n2CC2(c3ccc(F)cc3)OCCO2)CCN(C)C1

>  <inhibition at 1 µM [%]>
99

$$$$
>  <compound>
CCOC(=O)CC(Cn1c2c(c3cc(C)ccc31)CN(C)CC2)c1ccc(F)cc1 (stereo not drawn)

>  <inhibition at 1 µM [%]>
93

$$$$
>  <compound>
CN1CCc2c(c3cc(Cl)ccc3n2CC2(c3ccc(Cl)cc3)OCCO2)C1

>  <inhibition at 1 µM [%]>
89

$$$$
>  <compound>
CNC(=O)CC(Cn1c2c(c3cc(C)ccc31)CN(C)CC2)c1ccc(F)cc1 (stereo not drawn)

>  <inhibition at 1 µM [%]>
74

$$$$
>  <compound>
CN1CCc2c(c3cc(Cl)ccc3n2CC2(c3ccc(F)cc3)OCCO2)C1

>  <inhibition at 1 µM [%]>
93

$$$$
